- assayedTarget: Human immunodeficiency virus type 1 integrase (Human immunodeficiency virus 1, UniProt Q7ZJM1)
- Sequence (Q7ZJM1 whole entry): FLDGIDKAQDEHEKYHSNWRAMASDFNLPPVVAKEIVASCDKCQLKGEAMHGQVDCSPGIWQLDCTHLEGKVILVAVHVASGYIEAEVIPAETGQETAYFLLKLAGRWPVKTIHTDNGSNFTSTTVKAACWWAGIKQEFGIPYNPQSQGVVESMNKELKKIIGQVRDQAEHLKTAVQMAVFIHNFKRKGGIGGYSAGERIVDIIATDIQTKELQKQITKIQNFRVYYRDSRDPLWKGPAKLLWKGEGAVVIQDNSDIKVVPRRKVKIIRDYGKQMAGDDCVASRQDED
- procedureSummary: Inhibition of HIV-1 integrase strand transfer activity
propertyMeasured: pIC50
Numbers only, as −log10 of the molar value.

pIC50 recorded for this compound, O=c1cc(-c2ccc(O)c(O)c2)oc2cc(O[C@@H]3O[C@H](CO)[C@@H](O)[C@H](O)[C@H]3OS(=O)(=O)O)cc(O)c12 , is 3.40

###

- procedureSummary: Inhibition of alpha glucosidase (unknown origin)
- Parameters: species or system Homo sapiens
propertyMeasured: IC50 (µM)
One number for each entry, in µM.

IC50 recorded for this molecule, O=c1cc(-c2ccccc2)oc2cc(O)c(O)c(O)c12 [BAICALEIN] , is 52
